# MEASUREMENT DESCRIPTION: Pharmacokinetics of PL-100 and PL-461 in rats
# Assay type: in vivo, Sprague Dawley rats (Rattus norvegicus)
# MEASUREMENT PARAMETERS: Sprague Dawley, rat, plasma, iv; 5 mg/kg i.v., female rats
# Experimental: Animal tested are Sprague Dawley rats (species Rattus norvegicus) of 6-7 weeks old at the start of dosing and were obtained from Charles River (Montreal, Canada). The study usually comprises about 6 animals per groups. […] The rats were fasted 3 h. before dosing and 3 h. after dosing. The formulations are prepared as indicated below. […] Plasma samples together with standards and quality control samples were treated by protein precipitation and then analyzed by HPLC-MS. […]
REPORTED PROPERTY: AUC(0-inf) (ng·h/mL)
One number for each entry, in ng·h/mL.

Report AUC(0-inf) for COC(=O)N[C@H](C(=O)NCCCC[C@@H](CO)N(CC(C)C)S(=O)(=O)c1ccc(N)cc1)C(c1ccccc1)c1ccccc1 please.
1430

* * *

# MEASUREMENT DESCRIPTION: Plasma concentration after single oral dose in rats (in vivo cleavage of the phosphate group)
# Set-up: species or system male Sprague-Dawley rats
# MEASUREMENT PARAMETERS: 50 mg/Kg po, vehicle Mix, 3 rats
REPORTED PROPERTY: Cmax (µM)
One number for each entry, in µM.

Report Cmax for COC(=O)N[C@H](C(=O)NCCCC[C@@H](CO)N(CC(C)C)S(=O)(=O)c1ccc(N)cc1)C(c1ccccc1)c1ccccc1 please.
0.498

* * *

# Tested on: 63 HIV isolates with reduced susceptibility to all approved protease inhibitors
# Assay type: cell-based, HIV-1
# MEASUREMENT PARAMETERS: 63 diverse, multi-PI-resistant strains
Answer each item with its documented % FC < 10.
Numbers only, in %.

Reference set, count: 3
CC(C)(C)NC(=O)[C@@H]1C[C@@H]2CCCC[C@@H]2CN1C[C@@H](O)[C@H](Cc1ccccc1)NC(=O)[C@H](CC(N)=O)NC(=O)c1ccc2ccccc2n1 [Saquinavir] : 40
COC(=O)N[C@H](C(=O)NCCCC[C@@H](CO)N(CC(C)C)S(=O)(=O)c1ccc(N)cc1)C(c1ccccc1)c1ccccc1 [PL-100] : 76
Cc1cccc(C)c1OCC(=O)N[C@@H](Cc1ccccc1)[C@@H](O)C[C@H](Cc1ccccc1)NC(=O)[C@H](C(C)C)N1CCCNC1=O [Lopinavir] : 37

Attention now shifts to the item below.
Report % FC < 10 for Cc1c(O)cccc1C(=O)N[C@@H](CSc1ccccc1)[C@H](O)CN1C[C@H]2CCCC[C@H]2C[C@H]1C(=O)NC(C)(C)C [Nelfinavir] please.
27

* * *

# System: 63 HIV isolates with reduced susceptibility to all approved protease inhibitors
# Format: cell-based, HIV-1
# MEASUREMENT PARAMETERS: 63 diverse, multi-PI-resistant strains; FC in IC50 vs NL-4.3
REPORTED PROPERTY: Mean FC
Numbers only.

Reference set, count: 2
CC(C)CN(C[C@@H](O)[C@H](Cc1ccccc1)NC(=O)O[C@H]1CCOC1)S(=O)(=O)c1ccc(N)cc1 : 18.5
CC(C)(C)NC(=O)[C@@H]1C[C@@H]2CCCC[C@@H]2CN1C[C@@H](O)[C@H](Cc1ccccc1)NC(=O)[C@H](CC(N)=O)NC(=O)c1ccc2ccccc2n1 : 85

Attention now shifts to the item below.
Report Mean FC for COC(=O)N[C@H](C(=O)NCCCC[C@@H](CO)N(CC(C)C)S(=O)(=O)c1ccc(N)cc1)C(c1ccccc1)c1ccccc1 please.
8.7
